Tested on: SF-295 CNS
Experiment: NCI tumour cell line growth inhibition, 48 h
METRIC NAME: TGI

Example entries begin here.
• O=C1OC(c2ccccc2)=N/C1=C\c1cccc(F)c1 = > 100 µM
• CC(Br)C(=O)Nc1ccc(C(=O)O)c(O)c1 (centres undefined) = > 100 µM
• FC1=C2CCCCCC2SC1(F)F (centres undefined) = > 100 µM

Read off the recorded TGI for Cc1nc(Nc2nc3ccccc3o2)nc(-c2cccc([N+](=O)[O-])c2)c1C(=O)Nc1ccc(F)c(Cl)c1
7.09 µM

Read off the recorded TGI for O=C(O)/C=C/C(=O)N1C/C(=C\c2ccccc2)C(=O)/C(=C/c2ccccc2)C1
11.8 µM

Read off the recorded TGI for Cc1cccc(Nc2cnc(N)nc2N)c1
> 100 µM

* * *

System: M14 melanoma
Assay: NCI tumour cell line growth inhibition, 48 h
Some compounds, each annotated with its measured TGI.

• CO[C@H]1CC(c2ccc[nH]2)=N[C@]12O[C@@H](C)C[C@@H]1CCCCCCCc3ccc([nH]3)[C@H]12 = 3.35 µM

Read off the recorded TGI for C/C(=N\NC(=S)NCc1ccccc1)c1nc2ncccc2[nH]1
19.8 µM

Read off the recorded TGI for CN(C)CCN1C(=O)c2cccc3cccc(c23)C1=O
> 25 µM

Read off the recorded TGI for Cc1ccc(S(=O)(=O)NCCCSCCSCCCN)cc1
> 100 µM

Read off the recorded TGI for COc1cc2c3c(n(CCCN=[N+]=[N-])c(=O)c2cc1OC)-c1ccc(N(C)C)cc1C3=O
> 100 µM

Read off the recorded TGI for COc1ccc(C(=O)Nc2ccc3oc(-c4ccccc4)nc3c2)cc1
> 100 µM

Read off the recorded TGI for Cc1cc2c(cc1N)C(C)C1(CCC(=O)N2Cc2ccccc2)OCCO1 (stereo not drawn)
> 100 µM

Read off the recorded TGI for CN(C)CCN(C(=Nc1ccccc1)N1CCCC1)c1ccccc1
> 100 µM

Read off the recorded TGI for O=C(NNC(=O)c1ccccc1O)c1ccc(O)cc1
> 100 µM

Read off the recorded TGI for Cc1ncc([N+](=O)[O-])n1CCNC(=O)Cn1c([N+](=O)[O-])cnc1C
> 100 µM

* * *

Tested on: SN12C renal
Experiment: NCI tumour cell line growth inhibition, 48 h
Some compounds, each annotated with its measured TGI.

Example entries begin here.
* CC1OC(OC2C(Oc3cc(O)c4c(c3)O[C@H](c3ccc(O)cc3)CC4=O)OC(CO)C(O)C2O)C(O)C(O)C1O (some centres undefined) | > 100 µM
* Cc1ncc([N+](=O)[O-])n1CCNC(=O)Cn1c([N+](=O)[O-])cnc1C | > 100 µM
* COc1cc(C(=O)Nc2cc(C(N)=O)cc(OC)c2OC)cc(NC(=O)/C=C/c2ccccc2)c1OC | 85.6 µM

Recall the reported TGI of O=C(/C=C1/Nc2ccc([N+](=O)[O-])cc2NC1O)c1cccc([N+](=O)[O-])c1 (centres undefined) on SN12C renal and write it down.
> 100 µM

* * *

Some compounds, each annotated with its measured TGI.
Test system: HCT-15 colon
Experiment: NCI tumour cell line growth inhibition, 48 h

Example entries begin here.
• O=C(CC1C(=O)Nc2ccccc2S1=O)Nc1ccc(Cl)cc1 (stereo not given) = > 100 µM
• CN(C)CCN1C(=O)c2cccc3cccc(c23)C1=O = > 25 µM
• COc1ccc(N2C(=O)CC(c3c[nH]c4ncccc34)C2=O)cc1 (stereo not given) = 59.3 µM
• Nc1n[nH]c(CCc2nc(N)n[nH]2)n1 = > 100 µM
• CC1=C(C(=O)OC(C)C)C(c2ccccc2C(F)(F)F)C(C(=O)OC(CO[N+](=O)[O-])CO[N+](=O)[O-])=C(C)N1 (stereo not given) = 93.8 µM
• COc1ccc(OC)c(Nc2nc(-c3c(C)nc4sccn34)cs2)c1 = > 100 µM
• Cc1ncc([N+](=O)[O-])n1CCNC(=O)Cn1c([N+](=O)[O-])cnc1C = > 100 µM
• COC(=O)C1=CC2OC1(C)CCC2=O (stereo not given) = > 100 µM

Read off the recorded TGI for CN1C(Cl)=NS(=O)(=O)c2ccccc21
> 100 µM

Read off the recorded TGI for O=C1NC2(CCN(CCCC3(c4ccc(F)cc4)OCCO3)CC2)Oc2ccccc21
> 100 µM

Read off the recorded TGI for CN(C)CCN(C(=Nc1ccccc1)N1CCCC1)c1ccccc1
> 100 µM

Read off the recorded TGI for COc1ccc(CCNCCCC2c3ccccc3-c3ccccc32)cc1OC
29 µM

Read off the recorded TGI for Clc1nc(Cl)c2ncn(Cc3ccc(Cn4cnc5c(Cl)nc(Cl)nc54)cc3)c2n1
19.3 µM

Read off the recorded TGI for COc1ccc2nc(NC(=O)C(=O)C(C#N)c3ccc(Cl)c(Cl)c3)sc2c1 (stereo not given)
> 100 µM

Read off the recorded TGI for COc1ccc2c(c1OC)C(=O)c1cnccc1C2=O
> 100 µM
